Target: T1, human neuropeptide Y2 (NPY2) receptor (human, UniProt P49146 1-381)
T1 sequence (looked up): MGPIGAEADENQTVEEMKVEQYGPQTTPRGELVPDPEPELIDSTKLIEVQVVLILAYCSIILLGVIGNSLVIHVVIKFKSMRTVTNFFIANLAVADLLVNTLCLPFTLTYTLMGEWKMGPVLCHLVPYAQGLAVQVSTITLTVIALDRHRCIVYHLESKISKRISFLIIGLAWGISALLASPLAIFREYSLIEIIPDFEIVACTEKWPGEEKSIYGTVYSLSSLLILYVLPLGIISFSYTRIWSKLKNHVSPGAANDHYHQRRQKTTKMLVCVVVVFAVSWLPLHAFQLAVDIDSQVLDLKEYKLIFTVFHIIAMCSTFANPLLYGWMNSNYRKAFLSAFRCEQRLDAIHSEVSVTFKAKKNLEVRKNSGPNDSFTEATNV
Assay: cell-based or functional assay
Starred links: 1 amine or outer side, 2 acyl side, 3 side chain; linkers in the order of their positions; H or OH if unused. Non-standard residues stand in square brackets, D forms with d. Groups on a side chain read outwards from the residue. No end group written: not given here. *: point of attachment. C20 diacid = O=C(O)CCCCCCCCCCCCCCCCCCC(=O)*; C18 diacid = O=C(O)CCCCCCCCCCCCCCCCC(=O)*; γGlu = O=C(O)[C@H](CCC(=O)[*:2])N[*:1]; εLys = N[C@@H](CCCCN[*:1])C(=O)[*:2]; AEEA = NCCOCCOCC(=O)O; Aib = CC(C)(N)C(=O)O
Reported EC50, CreLuc assay, 100% hP values for a set of binders
Numbers only; they are read as nM.

Examples with answers:
Binder	EC50, CreLuc assay, 100% hP, nM
Y[Aib]EGTFTSDYSI[Aib]LEEQAQ[Aib]AFVQWLIK([εLys-AEEA-γGlu-γGlu-γGlu-γGlu-γGlu-C20 diacid])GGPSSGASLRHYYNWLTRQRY-NH2 (also: TFA salt) [Compound 45]	46.5
Y[Aib]EGTFTSDYSI[Aib]LEKQAQ[Aib]AFVQWLIK([AEEA-AEEA-Glu-Glu-Glu-Glu-C18 diacid])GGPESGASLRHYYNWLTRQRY-NH2 (also: TFA salt) [Compound 52]	93.5

// sample YXEGTFTSDYSIXLEKQAQXAFVEWLIKGGPSSYESLRHYYNWLTRQRY (Aib at 2, 13, 20; K28 side chain: C20DA-gGlu-gGlu-gGlu-gGlu-gGlu-gGlu-eLys; C-terminal NH2) [Compound 50] , its EC50, CreLuc assay, 100% hP was 52.5

// recorded EC50, CreLuc assay, 100% hP for Y[Aib]EGTFTSDYSI[Aib]LEKQAQ[Aib]EFVQWLIKGGPSSGASLRHYYNWLTRQRY-NH2 (not fully specified (residue 28); also: TFA salt) [Compound 28] : 46
